system: DIV30; assay: qHTS profiling for inhibitors of Plasmodium falciparum proliferation (AID 504749); note: nearly all actives have a fitted effect of over 60% in size; settings: P. falciparum in erythrocytes, SYBR Green DNA, 72 h; series mostly up to 28.7 µM
Records with an inconclusive call do not appear. Calls of active or inactive are those of the source. Calls come from the whole dose curve; as a rule, active = well fitted inhibition curve with a large enough effect; inconclusive = small, poorly fitted or top-dose-only effect; inactive = flat fitted curve, though single readings scatter. Peptide text beside a SMILES is read from it.
The categories you may choose from are t for active, f for inactive

Example results:
{"columns": ["COMPOUND", "QUALITATIVE LABEL"],
 "data": [
  ["CCCCCCCC(=O)O", "f"],
  ["COC(F)(F)C(Cl)Cl", "f"],
  ["CCNC(=O)[C@@H]1CCCN1C(=O)[C@H](CCCN=C(N)N)NC(=O)[C@H](CC(C)C)NC(=O)[C@@H](Cc1c[nH]c2ccccc12)NC(=O)[C@H](Cc1ccc(O)cc1)NC(=O)[C@H](CO)NC(=O)[C@H](Cc1c[nH]c2ccccc12)NC(=O)[C@H](Cc1cnc[nH]1)NC(=O)[C@@H]1CCC(=O)N1", "t"],
  ["Oc1cc(O)c2c(c1)OC(c1ccc(O)c(O)c1)C(O)C2 (stereo not given)", "f"],
  ["CCCCCCCCCCCCCC[n+]1ccc(C)cc1", "t"]
]}

Query :: Outcome? O=S(=O)(O)c1cc(O)c2c(N=Nc3ccc(Nc4ccccc4)c4c(S(=O)(=O)O)cccc34)cc(S(=O)(=O)O)cc2c1
Result :: f

Query :: Outcome? Nc1c(N=Nc2ccc(-c3ccc(N=Nc4cc(S(=O)(=O)O)c5ccccc5c4N)cc3)cc2)cc(S(=O)(=O)O)c2ccccc12
Result :: f

Query :: Outcome? C[C@]12O[C@H](C[C@]1(O)CO)n1c3ccccc3c3c4c(c5c6ccccc6n2c5c31)CNC4=O
Result :: t

Query :: Outcome? CO[C@H]1C[C@@H]2CC[C@@H](C)[C@@](O)(O2)C(=O)C(=O)N2CCCC[C@H]2C(=O)O[C@H]([C@H](C)C[C@@H]2CC[C@@H](OCCO)[C@H](OC)C2)CC(=O)[C@H](C)/C=C(\C)[C@@H](O)[C@@H](OC)C(=O)[C@H](C)C[C@H](C)/C=C/C=C/C=C/1C
Result :: t

Query :: Outcome? CC(=O)N[C@@H](CC(=O)O)C(=O)N[C@@H](CCC(=O)O)C(=O)O (Ac-Asp-Glu-OH)
Result :: f

Query :: Outcome? COc1cc(-c2ccc(-[n+]3nc(-c4ccccc4)nn3-c3ccc([N+](=O)[O-])cc3)c(OC)c2)ccc1-[n+]1nc(-c2ccccc2)nn1-c1ccc([N+](=O)[O-])cc1
Result :: t

Query :: Outcome? CCN(CC)Cc1cc(Nc2ccnc3cc(Cl)ccc23)ccc1O
Result :: t
